Test system: MDA-MB-435
Classes used: active, inactive

[[record]]
compound = "Cc1c(N(C(=O)c2cc(-c3cc(Cl)ccc3C(=O)N3Cc4ccccc4C[C@H]3CN3CCOCC3)n(C)c2C)c2ccc(O)cc2)cc(C#N)n1C"
assigned_label = "inactive"

[[record]]
compound = "CCOC(=O)c1ccc(C(O)CC(=O)OC(C)(C)C)[nH]1 (stereo unspecified)"
assigned_label = "inactive"

[[record]]
compound = "COc1ccc2c(c1)/C(=C/c1c(-c3ccc(C)cc3)nc3sc(C)cn13)C(=O)N2"
assigned_label = "inactive"

[[record]]
compound = "N#Cc1c(N)nc(N2CCOCC2)c(C#N)c1-c1cccc(O)c1"
assigned_label = "inactive"

[[record]]
compound = "CCSc1nc(=S)[nH]c2[nH]ncc12"
assigned_label = "inactive"

[[record]]
compound = "CCN(CC)CCCC(C)N/C(c1cccc(OC)c1)=c1\\c(=O)[nH]n(-c2c3ccccc3nc3ccccc23)c(=O)\\c1=C(/NC(C)CCCN(CC)CC)c1cccc(OC)c1 (stereo unspecified)"
assigned_label = "inactive"

[[record]]
compound = "O=C(Nc1nc(-c2ccc(Cl)cc2)cs1)c1ccc(O)c(O)c1"
assigned_label = "inactive"

[[record]]
compound = "CCC[CH2][Sn]([CH2]CCC)([O]C(=O)c1cccc(F)c1F)[O][Sn]([CH2]CCC)([CH2]CCC)[O]C(=O)c1cccc(F)c1F"
assigned_label = "active"

[[record]]
compound = "C=C1C(=O)O[C@H]2[C@H]1CC/C(COC(=O)NCCc1c[nH]c3ccccc13)=C\\CC[C@@]1(C)O[C@@H]21"
assigned_label = "inactive"

[[record]]
compound = "Cn1c(Cc2ccccc2)nc2cc3ccccc3cc21"
assigned_label = "inactive"

[[record]]
compound = "C[C@@H](Oc1cc(-c2cnn(C3CC4(CCNCC4)C3)c2)cnc1N)c1c(F)ccc(Cl)c1Cl"
assigned_label = "inactive"

[[record]]
compound = "COC1(OC)C[C@H](C)[C@@]23O[C@]24c2cc(O)c5c(c2N[C@H]3C#C/C=C\\C#C[C@]14O)C(=O)c1ccccc1C5=O"
assigned_label = "active"

[[record]]
compound = "COc1cc(/C=C2\\C[C@H]3[C@@H]4CC=C5C[C@@H](OC(C)=O)CC[C@]5(C)[C@H]4CC[C@]3(C)[C@H]2OC(C)=O)ccc1OCCCn1ccnc1"
assigned_label = "inactive"

[[record]]
compound = "CCC(=O)Nc1ccc2c(c1)CN1C(=O)c3ccccc3C1=N2"
assigned_label = "inactive"

[[record]]
compound = "Fc1ccc(Nc2ccc3cc(OCCCN4CCOCC4)ccc3n2)cc1F"
assigned_label = "inactive"

[[record]]
compound = "CN1CCN(Cc2ccc(NC(=O)c3[nH]ncc3Nc3ccnc4ccsc34)cc2)CC1"
assigned_label = "inactive"

